Listing of entries alongside the reported bioavailability.
experimental-protocol: Oral absorption rate (bioavailability) in SD rats
Assay type: in vivo
recorded-conditions: rat, blood; fasted SD rats; oral 20 mg/kg vs intravenous 2 mg/kg in PEG 400; AUCpo(0-48 h)/AUCiv(0-∞), dose-corrected; read-out: BA (bioavailability)
Give the quantity in %, number only.

These recorded examples may help you get a feel for the data.
compound	bioavailability (%)
C[C@@H](S[C@H]1CO[C@H](/C=C/C=C/c2ccc(C#N)cc2F)OC1)[C@](O)(Cn1cncn1)c1ccc(F)cc1F	123
CC(C[C@H]1CO[C@H](/C=C/C=C/c2ccc(C#N)cc2F)OC1)C(O)(Cn1cncn1)c1ccc(F)cc1F (stereo partly shown)	57.8
C[C@@H](S[C@H]1CO[C@H](/C=C/C=C/c2ccc(C#N)cc2)OC1)[C@](O)(Cn1cncn1)c1ccc(F)cc1F	50.7

Now look at this entry.
bioavailability lookup needed for C[C@@H](S[C@H]1CO[C@H](/C=C/C=C/c2ccc(F)cc2F)OC1)[C@](O)(Cn1cncn1)c1ccc(F)cc1F , thanks. 6.24
